- Test system: Cyclin K
- RUN_DESCRIPTION: Cyclin K levels by Western blot after single-concentration treatment
- Type: cell-based, human
- CONDITION_NOTES: HEK293T cells, 1 μM for 2 h, quantified from Western blots, mean ± SD, three independent experiments
- Protocol: HEK293T human […] kidney cells were cultured in DMEM (Gibco/Life Technologies), containing 25 mM D-glucose, 4 mM L-glutamine, and 1 mM sodium pyruvate, and supplemented with 10% (v/v) FBS and 1% nonessential amino acids (Gibco/Life Technologies). […] Unedited blots containing the marker lane are available on request. Western blots were quantified using ImageJ. […] DC50 values were calculated from concentration–response curves using nonlinear regression fit to a 4-parameter curve by GraphPad Prism.
PROPERTY_NAME: Remaining Cyclin K (%)
Give bare numbers, in %.

COMPOUND	EXPERIMENTAL_SYSTEM	VALUE_UNITS	EXPERIMENTAL_VALUE
O=C(NCc1ccc(-c2ccccn2)cc1)c1n[nH]cc1NC(=O)c1c(Cl)cccc1Cl	Cyclin K	%	1
CC[C@H](CO)Nc1nc(NCc2ccc(-c3cc(F)ccn3)cc2)c2ncn(C(C)C)c2n1	Cyclin K	%	3
CCc1ccnc(-c2ccc(CNc3nc(N[C@H](CC)CO)nc4c3ncn4C(C)C)cc2)c1	Cyclin K	%	6
OCCC1CCCCN1c1cc(NCc2ccc(-c3ccco3)cc2)n2ncc(Br)c2n1 (centres unmarked)	Cyclin K	%	4
OCCC1CCCCN1c1cc(NCc2ccc(-c3ccccn3)cc2)n2ncc(Br)c2n1 (centres unmarked)	Cyclin K	%	2
CC[C@H](CO)Nc1nc(NCc2ccc(-c3cn[nH]c3)cc2)c2ncn(C(C)C)c2n1	Cyclin K	%	93
CC[C@H](CO)Nc1nc(NCc2ccc(-c3ccc(C)cn3)cc2)c2ncn(C(C)C)c2n1	Cyclin K	%	93

query: Returns the measured Remaining Cyclin K (%) for the input compound. Input: `O=C(NCc1ccc(C2=CCOCC2)cc1)c1n[nH]cc1NC(=O)c1c(Cl)cccc1Cl`
result: 3

----------
Record form. Attribute: Remaining Cyclin K (%). Fill in for each entry.
- Tested on: Cyclin K
- RUN_DESCRIPTION: Cyclin K levels by Western blot after single-concentration treatment
- Type: cell-based, human
- CONDITION_NOTES: HEK293T cells, 1 μM for 2 h, quantified from Western blots, mean ± SD, three independent experiments
Answers are plain numbers, in %.

Would you please look over these solved cases?
SMILES_INPUT	Remaining Cyclin K (%)
CC[C@H](CO)Nc1nc(NCc2ccc(-c3ccccc3)cc2)c2ncn(C(C)C)c2n1	8
CC[C@H](CO)Nc1nc(NCc2ccc(-c3ccc(C(=O)NC45CC6CC(CC(C6)C4)C5)cn3)cc2)c2ncn(C(C)C)c2n1	94
CC[C@H](CO)Nc1nc(NCc2ccc(C3CCCCC3)cc2)c2ncn(C(C)C)c2n1	74
CC[C@H](CO)Nc1nc(NCc2ccc(C3=CCCC3)cc2)c2ncn(C(C)C)c2n1	5
CC[C@H](CO)Nc1nc(NCc2ccc(-c3ccco3)cc2)c2ncn(C(C)C)c2n1	3
CC[C@H](CO)Nc1nc(NCc2ccc(N3CCOCC3)cc2)c2ncn(C(C)C)c2n1	41
CC[C@H](CO)Nc1nc(NCc2ccc(C3CCCC3)cc2)c2ncn(C(C)C)c2n1	31

Field: next compound
query: Returns the measured Remaining Cyclin K (%) for the input compound. Input: `CC[C@H](CO)Nc1nc(NCc2ccc(-c3ncccc3C)cc2)c2ncn(C(C)C)c2n1`
result: 37
